Target: T1, MipZ R196A (Caulobacter crescentus, UniProt Q9A6C9 1-278, R196A)
T1 sequence: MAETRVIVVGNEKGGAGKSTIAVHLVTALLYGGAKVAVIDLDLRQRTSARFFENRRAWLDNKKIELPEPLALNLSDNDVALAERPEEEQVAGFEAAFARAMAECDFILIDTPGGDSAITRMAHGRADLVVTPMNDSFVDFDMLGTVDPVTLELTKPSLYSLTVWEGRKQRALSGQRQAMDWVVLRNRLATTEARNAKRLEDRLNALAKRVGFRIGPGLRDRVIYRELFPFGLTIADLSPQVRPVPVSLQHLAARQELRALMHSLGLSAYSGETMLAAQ
Assay: MST; low-affinity group, KD >> 10 uM; EMSA: 10 mM HEPES/NaOH pH 7.2, 150 mM NaCl, 10 mM MgCl2, 0.05% Tween 20, 0.46 mM ATPgS, room temp; BLI: 50 mM HEPES/NaOH pH 7.2, 50 mM NaCl, 5 mM MgCl2, 0.1 mM
Details: protein: recombinant; tags: C-terminal His6 (pET21a); chain copies: 2; label: Cy3 (5') on strand 1; blunt
pKd: −log10 of the molar value.
ATTRIBUTE MEASURED: pKd

• rand-Cy3/rand-rev 26 bp (dsDNA) DNA 1: GAGGCAGACTAGATCTTCTAGTTCGG DNA 2: CCGAACTAGAAGATCTAGTCTGCCTC = < 5.00
